Reference source: patent US20120264685A1

- method.description: Stability in human plasma
- Assay type: in vitro ADME
- measurement.setup: 2 μM, 37° C., 24 h
Where a SMILES comes first, the peptide text is derived from it. [ ]: non-standard residue; d: D form. ξ: configuration not given here. ξBip(2'-Et-4'-OMe) = CCc1cc(OC)ccc1-c1ccc(CC(N)C(=O)O)cc1; ξαMe(hhPhe) = CC(N)(CCCc1ccccc1)C(=O)O; ξαMeD = CC(N)(CC(=O)O)C(=O)O; ξαMeS = CC(N)(CO)C(=O)O
outcome.measure: % degradation in 24 h when incubated with human plasma (%)
The response must be a number in % with no trailing unit.

# % degradation in 24 h when incubated with human plasma (molecule: CCc1cc(OC)ccc1-c1ccc(CC(NC(=O)C(C)(CC(=O)O)NC(=O)C(C)(CO)NC(=O)[C@@H](NC(=O)[C@H](Cc2ccccc2)NC(=O)[C@@H](NC(=O)CNC(=O)[C@H](CCC(N)=O)NC(=O)[C@H](C)NC(=O)[C@H](Cc2c[nH]cn2)NC(=O)[C@@H](N)C(C)C)[C@@H](C)O)[C@@H](C)O)C(=O)NC(C)(CCCc2ccccc2)C(N)=O)cc1 (stereo partly shown) [compound 108] (H-VHAQGTFT[ξαMeS][ξαMeD][ξBip(2'-Et-4'-OMe)][ξαMe(hhPhe)]-NH2) ) is 00

* * *

- test.target: DPP IV enzyme (Homo sapiens, UniProt P27487)
- Sequence (P27487 whole entry, species assumed): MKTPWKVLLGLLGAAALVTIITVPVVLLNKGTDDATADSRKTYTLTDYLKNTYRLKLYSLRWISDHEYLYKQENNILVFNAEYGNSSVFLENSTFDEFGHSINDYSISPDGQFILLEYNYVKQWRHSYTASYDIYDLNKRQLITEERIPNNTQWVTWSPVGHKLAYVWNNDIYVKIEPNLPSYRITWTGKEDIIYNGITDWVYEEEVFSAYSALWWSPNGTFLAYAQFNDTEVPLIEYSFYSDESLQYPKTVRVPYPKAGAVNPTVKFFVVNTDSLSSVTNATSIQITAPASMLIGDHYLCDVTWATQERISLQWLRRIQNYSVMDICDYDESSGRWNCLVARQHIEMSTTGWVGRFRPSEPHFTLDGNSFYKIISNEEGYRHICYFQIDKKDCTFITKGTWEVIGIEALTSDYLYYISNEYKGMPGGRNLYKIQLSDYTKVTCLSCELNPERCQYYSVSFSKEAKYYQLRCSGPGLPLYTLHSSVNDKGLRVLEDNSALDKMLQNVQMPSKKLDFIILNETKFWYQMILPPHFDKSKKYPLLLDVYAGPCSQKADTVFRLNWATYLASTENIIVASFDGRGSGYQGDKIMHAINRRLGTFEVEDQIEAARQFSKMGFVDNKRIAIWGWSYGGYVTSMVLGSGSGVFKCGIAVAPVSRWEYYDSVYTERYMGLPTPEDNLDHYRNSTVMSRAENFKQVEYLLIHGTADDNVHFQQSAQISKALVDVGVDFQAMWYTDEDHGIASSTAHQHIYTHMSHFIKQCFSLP
- method.description: Stability against DPP IV enzyme
- Format: in vitro ADME
- measurement.setup: 2 μM, 37° C., 24 h
Where a SMILES comes first, the peptide text is derived from it. [ ]: non-standard residue; d: D form. ξ: configuration not given here. ξαMeBip(2'-Et,4'-OMe) = CCc1cc(OC)ccc1-c1ccc(CC(C)(N)C(=O)O)cc1; ξαMePhe(2,6-F2) = CC(N)(Cc1c(F)cccc1F)C(=O)O; ξhhPhe = NC(CCCc1ccccc1)C(=O)O; ξαMeD = CC(N)(CC(=O)O)C(=O)O; ξαMeS = CC(N)(CO)C(=O)O
outcome.measure: % degradation in 24 h when incubated with DPP-IV enzyme (%)
The response must be a number in % with no trailing unit.

# % degradation in 24 h when incubated with DPP-IV enzyme (compound: CCc1cc(OC)ccc1-c1ccc(CC(C)(NC(=O)[C@H](CC(=O)O)NC(=O)C(C)(CO)NC(=O)[C@@H](NC(=O)C(C)(Cc2c(F)cccc2F)NC(=O)[C@@H](NC(=O)CNC(=O)[C@H](CCC(N)=O)NC(=O)[C@H](C)NC(=O)[C@H](Cc2c[nH]cn2)NC(=O)[C@@H](N)C(C)C)[C@@H](C)O)[C@@H](C)O)C(=O)NC(CCCc2ccccc2)C(N)=O)cc1 (some centres unmarked) [compound 50] (H-VHAQGT[ξαMePhe(2,6-F2)]T[ξαMeS]D[ξαMeBip(2'-Et,4'-OMe)][ξhhPhe]-NH2) ) is 75

# % degradation in 24 h when incubated with DPP-IV enzyme (compound: CCc1cc(OC)ccc1-c1ccc(CC(C)(NC(=O)C(C)(CC(=O)O)NC(=O)[C@H](CO)NC(=O)[C@@H](NC(=O)[C@H](Cc2ccccc2)NC(=O)[C@@H](NC(=O)CNC(=O)[C@H](CCC(N)=O)NC(=O)[C@H](C)NC(=O)[C@H](Cc2c[nH]cn2)NC(=O)[C@@H](N)C(C)C)[C@@H](C)O)[C@@H](C)O)C(=O)NC(CCCc2ccccc2)C(N)=O)cc1 (some centres unmarked) [compound 58] (H-VHAQGTFTS[ξαMeD][ξαMeBip(2'-Et,4'-OMe)][ξhhPhe]-NH2) ) is 71
